System: P. falciparum K1
Assay: In vitro inhibition of P. falciparum K1 (SYBR Green I-based fluorescence assay)
Assay type: cell-based
Settings: Plasmodium falciparum; multidrug-resistant strain K1; 72 h incubation; average ± SD, three independent experiments; read-out: IC50 P. falciparum K1
Provide the reported IC50 of each item.
Give bare numbers, in µM.

Below: 2 molecules and their reported IC50.
Exercise: Specify reported IC50 for the molecule shown: "Oc1ccc(O)c(-c2ncc(-c3ccccc3O)o2)c1"
Key: 3.74

Exercise: // fetch IC50 given entry "Oc1ccccc1-c1nnc(-c2cccc(O)c2O)o1"
Key: 6.19

Please examine the following record next.
Exercise: Look up and state reported IC50 for C[C@@H]1CC[C@H]2[C@@H](C)C(=O)O[C@@H]3O[C@@]4(C)CC[C@@H]1[C@]32OO4 [Artemisinin, artemisinin, reference compound]
Key: 0.019
